target: GDP-loaded wild-type KRAS (WT) (Homo sapiens)
Sequence (P01116 1-188 isoform P01116-2): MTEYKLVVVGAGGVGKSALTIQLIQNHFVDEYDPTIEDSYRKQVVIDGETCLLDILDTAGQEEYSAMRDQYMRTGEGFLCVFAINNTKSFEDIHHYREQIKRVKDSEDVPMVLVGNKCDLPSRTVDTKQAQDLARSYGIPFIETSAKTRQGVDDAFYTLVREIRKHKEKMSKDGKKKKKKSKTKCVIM
pIC50: −log10 of the molar value.
pIC50 below 8 gives 0; pIC50 at or above it gives 1.

Molecule	Group Label
Cc1c(F)c(N)cc(-c2ncc3c(N4CC5(F)CCC(F)(C4)N5)nc(OC[C@@]45CCCN4C[C@H](F)C5)nc3c2F)c1C(F)(F)F	0
N#Cc1c(N)sc2c(F)ccc(-c3c(Cl)cc4c(N5CC6(F)CCC(F)(C5)N6)nc(OC[C@@]56CCCN5C[C@H](F)C6)nc4c3F)c12 [Example 7-3]	1
Cc1cc(-c2c(F)cc3c(N4CC5(F)CCC(F)(C4)N5)nc(OC[C@@]45CCCN4C[C@H](F)C5)nc3c2F)c2cccnc2c1N	0
Nc1cc2ccc(F)cc2c(-c2c(Cl)cc3c(N4CC5(F)CCC(F)(C4)N5)nc(OC[C@@]45CCCN4C[C@H](F)C5)nc3c2F)n1	0
C#Cc1c(F)ccc2cc(N)cc(-c3ncc4c(N5CC6(F)CCC(F)(C5)N6)nc(OC[C@@]56CCCN5[C@H](COc5cc(C(F)(F)F)ncn5)CC6)nc4c3F)c12	1
Cc1cc(N)nc(-c2c(Cl)cc3c(N4CC5(F)CCC(F)(C4)N5)nc(OC[C@@]45CCCN4C[C@H](F)C5)nc3c2F)c1C(F)(F)F	0
C#Cc1c(F)ccc2cc(O)cc(-c3c(F)cc4c(N5CC6(F)CCC(F)(C5)N6)nc(OC[C@@]56CCCN5C[C@H](F)C6)nc4c3F)c12 (single isomer, unassigned) [Example 9-1]	1
Fc1cc2c(N3CC4(F)CCC(F)(C3)N4)nc(OC[C@@]34CCCN3C[C@H](F)C4)nc2c(F)c1-c1csc2ncnc(Cl)c12	0
C#Cc1c(F)ccc2cc(O)cc(-c3ncc4c(N5CC6(F)CCC(F)(C5)N6)nc(OC[C@@]56CCCN5[C@H](COc5cc(C(F)(F)F)cnn5)CC6)nc4c3F)c12	1
N#Cc1c(N)sc2c(F)ccc(-c3c(Cl)cc4c(N5CC6(F)CCC(F)(C5)N6)nc(OC[C@@]56CCCN5C[C@H](F)C6)nc4c3F)c12 (single isomer, unassigned) [Example 8-2]	1
